# Measurement description: protein stability index of a GFP-peptide fusion (GPS, HEK-293T) (PSI 1-6); higher = more stable;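 note: 24-mer peptide tiles fused after GFP, lentivirally expressed, FACS-sorted into six equal bins by GFP/DsRed ratio, decoded by Illumina sequencing, PSI is the read-weighted mean bin number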
# Test context: treatment: MLN4924 1 uM, 8 h; c terminus: a fixed tail appended
I would appreciate it if you labelled entries condition met when protein stability index is 3 or higher, otherwise condition not met.

Exam item: decide whether the reported protein stability index for RLTSQDWERVHLIVAGGYDERVLE [ALG2] is at least 3.
condition met

Exam item: decide whether the reported protein stability index for KRLYDKAAKMYHQLKKCETRKLSP [SMG5] is at least 3.
condition not met

Exam item: decide whether the reported protein stability index for VGGTIRTCQKFLIQYNRRQLLILL [POP5] is at least 3.
condition not met

Exam item: decide whether the reported protein stability index for TRQLHEKTSQLSYYYMGFYIHSCP [ATE1] is at least 3.
condition not met

Exam item: decide whether the reported protein stability index for GGMSHLHTFRATFQEPLYPALRLW [TRIM14] is at least 3.
condition not met

Exam item: decide whether the reported protein stability index for STETLVHVSDEDNNADLCLTDDKQ [DLC1] is at least 3.
condition met

Exam item: decide whether the reported protein stability index for QECLKQLAIKKQQHIDNITQIEDA [TRIM14] is at least 3.
condition met

Exam item: decide whether the reported protein stability index for ALGHLGNDDSADYQHFLQDCVDGL [DLC1] is at least 3.
condition met

Exam item: decide whether the reported protein stability index for QKVTCFYQPAPYFAAEARYPIYVI [TENT5D] is at least 3.
condition not met

Exam item: decide whether the reported protein stability index for DLIDVDLIRGSTFAKAKPEIPWTS [PHTF1] is at least 3.
condition not met

Exam item: decide whether the reported protein stability index for VKKNSAKSMGLKKKAFVWARNIGF [ACSBG2] is at least 3.
condition not met

Exam item: decide whether the reported protein stability index for FKNRLVNIMPYESTRVCLQPIRGV [PTPRD] is at least 3.
condition not met

Exam item: decide whether the reported protein stability index for VAITILQDDHDHKVQELMSTHELE [MTUS2] is at least 3.
condition met

Exam item: decide whether the reported protein stability index for GTLVQLLGSDDINVVTCAAGILSN [CTNNB1] is at least 3.
condition not met

Exam item: decide whether the reported protein stability index for TLNSIWNVEDHINPKLPNISLDVL [POMT2] is at least 3.
condition not met

Exam item: decide whether the reported protein stability index for GGDGSGCSKQSGSFRKFRYGYNNV [ADAMTS4] is at least 3.
condition met

Exam item: decide whether the reported protein stability index for PQQTWASPAEVVDLTLDEDSRRKY [C18orf25] is at least 3.
condition met

Exam item: decide whether the reported protein stability index for MLERRYTPYPNLYPDQSPSEDWTM [CLCN6] is at least 3.
condition met

Exam item: decide whether the reported protein stability index for RILGLDQKKDCVPLMKPHRPWADT [HESX1] is at least 3.
condition not met

Exam item: decide whether the reported protein stability index for SVCSCTCYRSQDYGGRSVAPQNSF [KCNK9] is at least 3.
condition not met

Exam item: decide whether the reported protein stability index for LSPSRGVAQCLRDLVAMQWADAAG [ZSWIM9] is at least 3.
condition not met

Exam item: decide whether the reported protein stability index for EDLKGHVAETSGETIQGFWLLTKI [TPRG1] is at least 3.
condition not met

Exam item: decide whether the reported protein stability index for PKFKKWCDDYFFIAHRGERRGIGG [CPOX] is at least 3.
condition not met

Exam item: decide whether the reported protein stability index for RYSSDTTPLLNGSSQDRMFETMAI [GOSR1] is at least 3.
condition met

Exam item: decide whether the reported protein stability index for SSFIKTEPSSPASLTDSVNHHSPG [ESRRG] is at least 3.
condition met

Exam item: decide whether the reported protein stability index for VKVLAGQEYAAKIINTKKLSARDH [CAMK2A] is at least 3.
condition met

Exam item: decide whether the reported protein stability index for LESTLAETEARYSSQLAQMQCLIS [KRT36] is at least 3.
condition met

Exam item: decide whether the reported protein stability index for QAFCCENDINILRVSNPGRLAELL [GADD45A] is at least 3.
condition not met

Exam item: decide whether the reported protein stability index for VCVFLSHGEGNHIYAYDAKIEIQT [CASP6] is at least 3.
condition not met

Exam item: decide whether the reported protein stability index for DFSVSLKASGKNKHFKVQLVDNVY [NCK2] is at least 3.
condition not met

Exam item: decide whether the reported protein stability index for IHLDPRTREGFTLLHLAVNSNTPV [FEM1B] is at least 3.
condition not met

Exam item: decide whether the reported protein stability index for LNQKTSEKMKKRKMSNSFHGIRPP [RHOBTB3] is at least 3.
condition met

Exam item: decide whether the reported protein stability index for IRKGESRSEALAVDGAGKPGAEEA [CHGA] is at least 3.
condition met

Exam item: decide whether the reported protein stability index for PDIRTKDIEDVFYKYGAIRDIDLK [SRSF1] is at least 3.
condition met

Exam item: decide whether the reported protein stability index for FDKLALRFHGRLLFLKDVLGDEIC [KCTD13] is at least 3.
condition not met

Exam item: decide whether the reported protein stability index for KREMILKRKEEEALKDSLRPKLSE [VDR] is at least 3.
condition met

Exam item: decide whether the reported protein stability index for FLSLHRAHLGEEAHKCLECGKCFS [ZNF263] is at least 3.
condition met

Exam item: decide whether the reported protein stability index for LEAGLPLQVRGYPEEKKEEEGSAN [CHGA] is at least 3.
condition met

Exam item: decide whether the reported protein stability index for SVVRRCVKVLAGQEYAAKIINTKK [CAMK2A] is at least 3.
condition not met

Exam item: decide whether the reported protein stability index for LPWLSLRALKFRERDALEAVFRFW [DNAAF3] is at least 3.
condition not met

Exam item: decide whether the reported protein stability index for QEAEEPKARVLRSKSLCHDEIENL [CDC25B] is at least 3.
condition met

Exam item: decide whether the reported protein stability index for VAPQDQCKLTCQAQALGYYYVLEP [ADAMTS4] is at least 3.
condition not met

Exam item: decide whether the reported protein stability index for AEKNCMTFFEVSPLCNFNVIESFT [RAB40C] is at least 3.
condition not met

Exam item: decide whether the reported protein stability index for WQMIEQIQFIKLFGMAKIDNLLQE [HNF4A] is at least 3.
condition not met

Exam item: decide whether the reported protein stability index for VQSLCAKHGIEYQSKPLLSAFADI [FADS1] is at least 3.
condition not met

Exam item: decide whether the reported protein stability index for FSIVSVAAHLALLLLCGTISLRVY [RTN2] is at least 3.
condition met
